B1: CPEB3 Ribozyme (parent)
chain: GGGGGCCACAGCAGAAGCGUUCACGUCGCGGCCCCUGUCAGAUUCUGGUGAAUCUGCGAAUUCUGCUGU

variants of: B1; experiment: self-cleavage, relative activity (ratio to wild type); higher = more cleavage; co-transcriptional
Classes (self-cleavage): lo: < 0.2; mid: ≥ 0.2 and < 0.6; hi: ≥ 0.6

[
  {
    "SEQUENCE_ENTRY": "GGGGGCCACAGCCGAAGCGUUCACGUUGCGGCCCCUGUCAGAUUCUGGUGAAUCUGCGAAUUCUGCUGU [A13C C27U]",
    "CATEGORY_LABEL": "lo"
  },
  {
    "SEQUENCE_ENTRY": "GGGGGCCACAGCAGAAGCGUUCACGUCGCGGCCCCUGUCUGGUUCUGGUGAAUCUGCGAAUUCUGCUGU [A40U A42G]",
    "CATEGORY_LABEL": "lo"
  },
  {
    "SEQUENCE_ENTRY": "GGGGGCCACAGCAGAUGCGUUCACGUCGCGGCCCCUGUCAGAUUCUGGUGAAUCUCCGAAUUCUGCUGU [A16U G56C]",
    "CATEGORY_LABEL": "hi"
  },
  {
    "SEQUENCE_ENTRY": "GGGGGCCACAGCAGAAGCGUUCACGUCGCGGCCCCAGUCAGAUUCUGGUGAAUCUGCGAAUGCUGCUGU [U36A U62G]",
    "CATEGORY_LABEL": "mid"
  },
  {
    "SEQUENCE_ENTRY": "GGGGGCCACAGCAGAAUCGUUCACGUCGCGGCCCCUGUCAGAUUCUGGUGAAUCUGCGAAUCCUGCUGU [G17U U62C]",
    "CATEGORY_LABEL": "mid"
  },
  {
    "SEQUENCE_ENTRY": "GGGGGCCACAGCAGAAGCGUUCACGUCGCGGCCCCUGUCAGAUUCUGGUGAGUCUGCGAAUCCUGCUGU [A52G U62C]",
    "CATEGORY_LABEL": "hi"
  },
  {
    "SEQUENCE_ENTRY": "GGGGGCUCCAGCAGAAGCGUUCACGUCGCGGCCCCUGUCAGAUUCUGGUGAAUCUGCGAAUUCUGCUGU [C7U A8C]",
    "CATEGORY_LABEL": "hi"
  },
  {
    "SEQUENCE_ENTRY": "GGGGGCCACAGCAGAAGCGUUCACGUCGCGGCACCUGUCAGAUUCUGGUGAAUUUGCGAAUUCUGCUGU [C33A C54U]",
    "CATEGORY_LABEL": "hi"
  },
  {
    "SEQUENCE_ENTRY": "GGGGGCCACAGCAGAAGCGUUCACCUCGCGGCCCCUGUCAGAUUCUGGUGAAUCUGCGAAUGCUGCUGU [G25C U62G]",
    "CATEGORY_LABEL": "lo"
  },
  {
    "SEQUENCE_ENTRY": "GGGGGCCACAGCAGAAGCGUUCACGUCGCGGCCCCUGUCGGAUUCUGGUGAACCUGCGAAUUCUGCUGU [A40G U53C]",
    "CATEGORY_LABEL": "hi"
  },
  {
    "SEQUENCE_ENTRY": "GGGGGCCACAGCAGAAGCGUUCACGUCGCAGCCCCUGUCAGAUUCUGGUCAAUCUGCGAAUUCUGCUGU [G30A G50C]",
    "CATEGORY_LABEL": "hi"
  },
  {
    "SEQUENCE_ENTRY": "GGGGGCCACAGCAGAAGCCUUCACGUCGCGGCCCCUGUCAGAUUCUGGUGAAUCUGCGGAUUCUGCUGU [G19C A59G]",
    "CATEGORY_LABEL": "lo"
  },
  {
    "SEQUENCE_ENTRY": "GGGGGCCACAGCAGAAGCGUUCACAUCGCGGCCCGUGUCAGAUUCUGGUGAAUCUGCGAAUUCUGCUGU [G25A C35G]",
    "CATEGORY_LABEL": "lo"
  },
  {
    "SEQUENCE_ENTRY": "GGGUGCUACAGCAGAAGCGUUCACGUCGCGGCCCCUGUCAGAUUCUGGUGAAUCUGCGAAUUCUGCUGU [G4U C7U]",
    "CATEGORY_LABEL": "mid"
  },
  {
    "SEQUENCE_ENTRY": "GGGGGCCACAGCAGAAGCGUUCACGUCGCGGCCCCUGUCAGAUUCUGCUUAAUCUGCGAAUUCUGCUGU [G48C G50U]",
    "CATEGORY_LABEL": "hi"
  },
  {
    "SEQUENCE_ENTRY": "GGGGGCGACAGCAGAAGCGUUCACCUCGCGGCCCCUGUCAGAUUCUGGUGAAUCUGCGAAUUCUGCUGU [C7G G25C]",
    "CATEGORY_LABEL": "lo"
  },
  {
    "SEQUENCE_ENTRY": "GGGUGCCAAAGCAGAAGCGUUCACGUCGCGGCCCCUGUCAGAUUCUGGUGAAUCUGCGAAUUCUGCUGU [G4U C9A]",
    "CATEGORY_LABEL": "hi"
  },
  {
    "SEQUENCE_ENTRY": "GGGGGCCACAGCAGAAGUGUUCACGUCGCCGCCCCUGUCAGAUUCUGGUGAAUCUGCGAAUUCUGCUGU [C18U G30C]",
    "CATEGORY_LABEL": "mid"
  },
  {
    "SEQUENCE_ENTRY": "GGGGGCCACAGCGGAAGCUUUCACGUCGCGGCCCCUGUCAGAUUCUGGUGAAUCUGCGAAUUCUGCUGU [A13G G19U]",
    "CATEGORY_LABEL": "lo"
  },
  {
    "SEQUENCE_ENTRY": "GGGGGCCACAGCAGUAGCGUUCACGUCGCGGCCCCUGGCAGAUUCUGGUGAAUCUGCGAAUUCUGCUGU [A15U U38G]",
    "CATEGORY_LABEL": "lo"
  },
  {
    "SEQUENCE_ENTRY": "GGGGGCCACAGAAGAAGCGUUCAAGUCGCGGCCCCUGUCAGAUUCUGGUGAAUCUGCGAAUUCUGCUGU [C12A C24A]",
    "CATEGORY_LABEL": "mid"
  },
  {
    "SEQUENCE_ENTRY": "GGGAGCCACAGCAGAAGCGAUCACGUCGCGGCCCCUGUCAGAUUCUGGUGAAUCUGCGAAUUCUGCUGU [G4A U20A]",
    "CATEGORY_LABEL": "mid"
  }
]

Data provenance: the RNAGym collection of RNA variant scans (doi:10.7554/elife.80360)
